- protocol.text: Human liver microsomes (HLMs) intrinsic clearance assay
- Type: in vitro ADME
- details: human, microsomes, pH 7.4, HLM CLint
observable: microsomal CLint at 1 µM (µL/min/mg)
Numeric answer only, unit µL/min/mg assumed.

Find the measured microsomal CLint at 1 µM of Cc1c(C(=O)C2CCN(C(=O)[C@H]3NC[C@@H]4C[C@@H]43)CC2)c2ccncc2n1-c1ccc(F)cc1C(=O)N(C(C)C)[C@H](C)C(F)(F)F (single isomer, unassigned) [Example 57-1] and report it. 84

Find the measured microsomal CLint at 1 µM of CC(C)c1ncccc1-c1cc(F)ccc1-n1cc(C(=O)C2CN(C(=O)[C@H]3N[C@@H]4CC[C@H]3C4)C2)c2ccncc21 [Example 10] and report it. 182

Find the measured microsomal CLint at 1 µM of CC(C)(F)c1ncccc1-c1cc(F)ccc1-n1cc(C(=O)C2CN(C(=O)[C@H]3N[C@@H]4CC[C@H]3C4)C2)c2ccncc21 [Example 13] and report it. 119

Find the measured microsomal CLint at 1 µM of CC(C)c1ncccc1-c1cc(F)ccc1-n1cc(C(=O)C2CCN(C(=O)[C@H]3N[C@@H]4CC[C@H]3C4)CC2)c2ccncc21 [Example 38] and report it. 131

Find the measured microsomal CLint at 1 µM of CC(C)N(C(=O)c1cc(F)ccc1-n1cc(C(=O)C2CN(C(=O)[C@H]3N[C@@H]4CC[C@H]3C4)C2)c2ccnnc21)C(C)C [Example 14] and report it. 38

Find the measured microsomal CLint at 1 µM of CC(C)N(C(=O)c1cc(F)ccc1-n1cc(C(=O)C2CN(C(=O)[C@H]3N[C@H]4C[C@@H]3[C@@H](F)C4)C2)c2ccncc21)C(C)C [Example 7] and report it. 148

Find the measured microsomal CLint at 1 µM of Cc1c(C(=O)C2CCN(C(=O)[C@@H]3CC[C@H](C)N3)CC2)c2ccncc2n1-c1ccc(F)cc1C(=O)N(C(C)C)C(C)C [Example 60] and report it. 106

Find the measured microsomal CLint at 1 µM of CCN(C(=O)c1cc(F)ccc1-n1c(C)c(C(=O)C2CCN(C(=O)[C@H]3N[C@@H]4CC[C@H]3C4)CC2)c2ccncc21)C(C)C [Example 46] and report it. 50

Find the measured microsomal CLint at 1 µM of CC(C)N(C(=O)c1cc(F)ccc1-n1cc(C(=O)C2CCN(C(=O)[C@H]3NC[C@@H]4CC[C@@H]43)CC2)c2ccncc21)C(C)C (relative stereo) [Example 25] and report it. 94

Find the measured microsomal CLint at 1 µM of CC(C)N(C(=O)c1cc(F)ccc1-n1cc(C(=O)C2CCN(C(=O)[C@@H]3CCC(C)(C)N3)CC2)c2ccncc21)C(C)C [Example 27] and report it. 46

Find the measured microsomal CLint at 1 µM of C[C@@H]1CCC[C@H](C)N1C(=O)c1cc(F)ccc1-n1cc(C(=O)C2CCN(C(=O)[C@H]3N[C@@H]4CC[C@H]3C4)CC2)c2ccncc21 [Example 33] and report it. 50

Find the measured microsomal CLint at 1 µM of CC(C)N(C(=O)c1cc(F)ccc1-n1cc(C(=O)C2CN(C(=O)[C@H]3N[C@@H]4CC[C@H]3C4)C2)c2ccnc(F)c21)C(C)C [Example 15] and report it. 132

---

Please respond with reported microsomal CLint at 1 µM for every item in the list.
- protocol.text: Human liver microsomes (HLMs) intrinsic clearance assay
- Type: in vitro ADME
- details: human, microsomes, pH 7.4, 1 mg/mL HLM, NADPH; read-out: HLM CLint
Numeric answer only, unit µL/min/mg assumed.

Find the measured microsomal CLint at 1 µM of CC(C)N(C(=O)c1cc(F)ccc1-n1cc(C(=O)C2CCN(C(=O)[C@@H]3CCC4(CC4)N3)CC2)c2ccncc21)C(C)C and report it. 145

Find the measured microsomal CLint at 1 µM of CCN(C(=O)c1cc(F)ccc1-n1c(C)c(C(=O)[C@@H]2CCN(C(=O)[C@@H]3CCC4(CC4)N3)[C@@H](C)C2)c2ccncc21)C(C)C (single isomer, unassigned) and report it. 150

Find the measured microsomal CLint at 1 µM of CC(C)N(C(=O)c1cc(F)ccc1-n1cc(C(=O)C2CCN(C(=O)[C@@H]3CC4(CC4)CN3)CC2)c2ccncc21)C(C)C and report it. 51

Find the measured microsomal CLint at 1 µM of Cc1c(C(=O)C2CCN(C(=O)[C@@H]3CCC4(CC4)N3)CC2)c2ccncc2n1-c1ccc(F)cc1C(=O)N1[C@H](C)COC[C@H]1C (single isomer, unassigned) and report it. 128

---

- protocol.text: Caco-2 cell monolayers intrinsic permeation assay in the presence of efflux inhibitors
- Format: in vitro ADME
- details: Caco-2, with efflux inhibitors
Please respond with reported Papp A→B for every item in the list.
Numeric answer only, unit ×10⁻⁶ cm/s assumed.

Find the measured Papp A→B of CCN(C(=O)c1cc(F)ccc1-n1cc(C(=O)C2CN(C(=O)[C@H]3NC4CCC3CC4)C2)c2ccncc21)C(C)C [Example 9] and report it. 0.5

Find the measured Papp A→B of CC(C)N(C(=O)c1cc(F)ccc1-n1cc(C(=O)C2CN(C(=O)[C@H]3N[C@H]4C[C@@H]3[C@@H](F)C4)C2)c2ccncc21)C(C)C [Example 7] and report it. 2.2

Find the measured Papp A→B of CC(C)n1nccc1-c1cc(F)ccc1-n1cc(C(=O)C2CCN(C(=O)[C@H]3N[C@@H]4CC[C@H]3C4)CC2)c2ccncc21 [Example 36] and report it. 0.6

Find the measured Papp A→B of CC(C)c1ncccc1-c1cc(F)ccc1-n1cc(C(=O)C2CCN(C(=O)[C@H]3N[C@@H]4CC[C@H]3C4)CC2)c2ccncc21 [Example 38] and report it. 1.5

Find the measured Papp A→B of CCN(C(=O)c1cc(F)ccc1-n1c(C)c(C(=O)[C@@H]2CCN(C(=O)[C@@H]3CC[C@H](C)N3)[C@@H](C)C2)c2ccncc21)C(C)C (stereo in doubt) [Example 63] and report it. 1.5

Find the measured Papp A→B of CC(C)c1ccncc1-c1cc(F)ccc1-n1cc(C(=O)C2CCN(C(=O)[C@H]3N[C@@H]4CC[C@H]3C4)CC2)c2ccncc21 [Example 41] and report it. 0.5

---

- protocol.text: Human liver microsomes (HLMs) intrinsic clearance assay
- Type: in vitro ADME
- details: human, microsomes, pH 7.4, HLM CLint
observable: microsomal CLint at 1 µM (µL/min/mg)
Numeric answer only, unit µL/min/mg assumed.

Find the measured microsomal CLint at 1 µM of CC(C)N(C(=O)c1cc(F)ccc1-n1cc(C(=O)C2CCN(C(=O)[C@H]3N[C@H]4C[C@@H]3[C@@H](F)C4)CC2)c2ccncc21)C(C)C and report it. 91

Find the measured microsomal CLint at 1 µM of CC(C)c1ccccc1-c1cc(F)ccc1-n1cc(C(=O)C2CCN(C(=O)[C@H]3N[C@@H]4CC[C@H]3C4)CC2)c2ccncc21 and report it. 259

Find the measured microsomal CLint at 1 µM of CC(C)c1ncsc1-c1cc(F)ccc1-n1cc(C(=O)C2CCN(C(=O)[C@H]3N[C@@H]4CC[C@H]3C4)CC2)c2ccncc21.O=CO and report it. 219

Find the measured microsomal CLint at 1 µM of CCN(C(=O)c1cc(F)ccc1-n1cc(C(=O)C2CCN(C(=O)[C@H]3NC4CCC3CC4)CC2)c2ccncc21)C(C)C and report it. 26

Find the measured microsomal CLint at 1 µM of CCN(C(=O)c1cc(F)ccc1-n1c(C)c(C(=O)C2CCN(C(=O)[C@H]3NC[C@@H]4C[C@@H]43)CC2)c2ccncc21)C(C)C and report it. 54

Find the measured microsomal CLint at 1 µM of CC(C)N(C(=O)c1cc(F)ccc1-n1cc(C(=O)C2CCN(C[C@H]3CC[C@H](NS(C)(=O)=O)CC3)CC2)c2ccncc21)C(C)C and report it. 52

---

Please respond with reported pIC50 for every item in the list.
- system: hERG (Homo sapiens (Human), UniProt Q12809)
- Sequence (Q12809 whole entry): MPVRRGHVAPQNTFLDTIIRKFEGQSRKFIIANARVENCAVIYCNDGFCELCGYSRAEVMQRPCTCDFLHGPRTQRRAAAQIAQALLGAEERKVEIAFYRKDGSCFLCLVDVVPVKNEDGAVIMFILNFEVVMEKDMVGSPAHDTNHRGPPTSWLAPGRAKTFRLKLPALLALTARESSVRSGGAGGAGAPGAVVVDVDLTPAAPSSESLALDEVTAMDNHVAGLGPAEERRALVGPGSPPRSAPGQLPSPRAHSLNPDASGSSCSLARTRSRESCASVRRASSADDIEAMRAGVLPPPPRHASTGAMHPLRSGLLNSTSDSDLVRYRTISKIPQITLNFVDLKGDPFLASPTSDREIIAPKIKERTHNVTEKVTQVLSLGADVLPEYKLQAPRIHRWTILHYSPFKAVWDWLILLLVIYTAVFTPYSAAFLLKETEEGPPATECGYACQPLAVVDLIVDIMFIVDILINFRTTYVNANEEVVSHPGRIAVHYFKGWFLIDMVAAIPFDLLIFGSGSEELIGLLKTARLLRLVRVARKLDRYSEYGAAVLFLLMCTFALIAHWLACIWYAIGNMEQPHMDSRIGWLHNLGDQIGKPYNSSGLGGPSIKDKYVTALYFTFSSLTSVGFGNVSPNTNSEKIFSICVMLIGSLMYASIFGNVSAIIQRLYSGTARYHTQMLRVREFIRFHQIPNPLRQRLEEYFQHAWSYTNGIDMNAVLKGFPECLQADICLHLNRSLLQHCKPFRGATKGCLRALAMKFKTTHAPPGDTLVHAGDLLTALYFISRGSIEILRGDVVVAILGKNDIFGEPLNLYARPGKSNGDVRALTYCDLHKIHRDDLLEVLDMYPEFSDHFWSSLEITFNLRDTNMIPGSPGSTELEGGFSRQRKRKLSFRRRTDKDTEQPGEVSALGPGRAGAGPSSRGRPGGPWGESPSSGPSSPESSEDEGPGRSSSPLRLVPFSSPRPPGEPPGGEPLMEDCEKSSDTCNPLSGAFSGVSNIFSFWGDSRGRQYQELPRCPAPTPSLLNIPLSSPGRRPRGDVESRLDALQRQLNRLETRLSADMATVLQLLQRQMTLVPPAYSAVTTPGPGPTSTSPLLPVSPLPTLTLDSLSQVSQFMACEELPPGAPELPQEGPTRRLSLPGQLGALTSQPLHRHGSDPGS
- protocol.text: hERG assay 1 (standard), SyncroPatch 384PE
- Assay type: cell-based
- details: CHO cells, room temperature, up to 40 uM
Reminder that pIC50 means the negative base-10 logarithm of the concentration expressed in mol/L.

Look up and report pIC50, with hERG (Homo sapiens (Human), UniProt Q12809) as system, for CC(C)N(C(=O)c1cc(F)ccc1-n1cc(C(=O)[C@@H]2CCN(C[C@H]3CC[C@H](NS(C)(=O)=O)CC3)C2)c2ccncc21)C(C)C [Example 4] 5.20

Look up and report pIC50, with hERG (Homo sapiens (Human), UniProt Q12809) as system, for CC(C)N(C(=O)c1cc(F)ccc1-n1cc(C(=O)[C@@H]2CCN(C(=O)[C@H]3N[C@@H]4CC[C@H]3C4)C2)c2ccncc21)C(C)C [Example 3] 4.41

Look up and report pIC50, with hERG (Homo sapiens (Human), UniProt Q12809) as system, for Cc1c(C(=O)[C@@H]2CCN(C(=O)[C@@H]3CC[C@@H](C)N3)[C@@H](C)C2)c2ccncc2n1-c1ccc(F)cc1C(=O)N(C(C)C)C(C)C (stereo in doubt) [Example 64] 4.49

Origin of measurements: patent US20240335431A1
